# credit: patent US20180148504A1

STUDY_SYSTEM: T1, recombinant purified FRα (ECL assay calibrator) (human, UniProt P15328 25-234)
T1 construct: Calibrator of the ECL sandwich assays; also called FRα calibrator; FRα standard
T1 sequence (P15328 25-234 limits assumed): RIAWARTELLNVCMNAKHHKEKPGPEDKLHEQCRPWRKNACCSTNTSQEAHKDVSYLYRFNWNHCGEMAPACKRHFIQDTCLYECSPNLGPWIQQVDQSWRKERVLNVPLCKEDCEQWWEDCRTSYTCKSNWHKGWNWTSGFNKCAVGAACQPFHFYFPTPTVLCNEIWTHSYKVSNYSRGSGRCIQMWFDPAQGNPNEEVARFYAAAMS
ASSAY_NOTES: ECL sandwich, FRα calibrator; capture 2F11.F8; binder = detection Ab
# key: entry, value: Specific signal at 500 pg/mL

BINDER: Monoclonal antibody 24H8.F3 (antibody, mouse IgG1, V domains shown, Murine IgG1 kappa from hybridoma; also called ATCC PTA-123097) VH: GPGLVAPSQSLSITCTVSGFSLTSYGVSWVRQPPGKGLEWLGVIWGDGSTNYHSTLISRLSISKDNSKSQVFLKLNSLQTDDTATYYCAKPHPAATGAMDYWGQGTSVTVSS VL: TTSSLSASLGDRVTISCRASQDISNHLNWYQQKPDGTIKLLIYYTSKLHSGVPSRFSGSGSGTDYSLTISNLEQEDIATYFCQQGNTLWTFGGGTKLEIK
Specific signal at 500 pg/mL: 61
//
BINDER: Monoclonal antibody 24H8.D3 (antibody, mouse IgG1, V domains shown, Biotin-conjugated when used as capture antibody in the ECL assay; also called ATCC PTA-123090) VH: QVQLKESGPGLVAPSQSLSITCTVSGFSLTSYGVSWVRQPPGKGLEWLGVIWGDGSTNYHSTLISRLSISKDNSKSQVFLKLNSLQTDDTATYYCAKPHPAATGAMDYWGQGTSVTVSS VL: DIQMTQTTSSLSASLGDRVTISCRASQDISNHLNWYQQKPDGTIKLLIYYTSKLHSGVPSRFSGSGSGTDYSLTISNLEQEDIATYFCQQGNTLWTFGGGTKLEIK
Specific signal at 500 pg/mL: 64
//
BINDER: Monoclonal antibody 6A2.G7 (antibody, mouse IgG1, V domains shown, Murine IgG1 kappa from hybridoma; also called ATCC PTA-123093) VH: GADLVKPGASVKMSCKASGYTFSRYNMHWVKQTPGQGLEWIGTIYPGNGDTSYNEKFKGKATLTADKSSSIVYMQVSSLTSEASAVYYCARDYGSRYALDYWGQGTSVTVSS VL: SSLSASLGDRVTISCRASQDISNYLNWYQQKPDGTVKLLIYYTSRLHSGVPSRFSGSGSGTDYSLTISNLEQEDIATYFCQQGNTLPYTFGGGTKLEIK
Specific signal at 500 pg/mL: 283
